Values compiled from the supplement of paper PMC11732987.

# TARGET_OR_SYSTEM: PSMD7 (UniProt P51665)
# Sequence (whole entry): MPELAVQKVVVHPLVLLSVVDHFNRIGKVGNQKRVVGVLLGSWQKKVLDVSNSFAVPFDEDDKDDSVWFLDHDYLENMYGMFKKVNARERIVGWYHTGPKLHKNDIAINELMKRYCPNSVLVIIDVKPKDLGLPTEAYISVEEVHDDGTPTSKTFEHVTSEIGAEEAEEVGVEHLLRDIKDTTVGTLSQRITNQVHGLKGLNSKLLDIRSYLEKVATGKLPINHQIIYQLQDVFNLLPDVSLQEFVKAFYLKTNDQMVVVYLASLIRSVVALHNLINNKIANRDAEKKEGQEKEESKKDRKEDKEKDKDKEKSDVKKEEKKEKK
# PROCEDURE_TEXT: log2 ratio of Biotin-Ahx-Ub-VS probe labelling (fragment/DMSO); higher = less target engagement (more negative = stronger competition), active = hit call of the paper (q ≤ 0.05, log2 ratio ≤ -1)
# TEST_CONDITIONS: compound concentration: 200 uM; treatment time: 3 h
# label = 1 if log2 ratio of Biotin-Ahx-Ub-VS probe labelling >= -0.1 else 0

Can Cc1n[nH]c2c1CN(C(=O)CCl)CC2 be said to have log2 ratio of Biotin-Ahx-Ub-VS probe labelling at or above -0.1?
0

Can O=C(CCl)NCc1ccc(N2CCOCC2)c(F)c1 be said to have log2 ratio of Biotin-Ahx-Ub-VS probe labelling at or above -0.1?
1

Can C/C(=C\CNC(=O)CCl)c1cnn(C)c1.Cl be said to have log2 ratio of Biotin-Ahx-Ub-VS probe labelling at or above -0.1?
1

Can NS(=O)(=O)c1ccc(Cl)c(NC(=O)CCl)c1 be said to have log2 ratio of Biotin-Ahx-Ub-VS probe labelling at or above -0.1?
0

Can O=C(CCl)N1CCN(C(=O)Nc2ccccc2)CC1 be said to have log2 ratio of Biotin-Ahx-Ub-VS probe labelling at or above -0.1?
1

Can Cc1ccccc1CN(C)C(=O)CCl be said to have log2 ratio of Biotin-Ahx-Ub-VS probe labelling at or above -0.1?
0

Can CC1(NC(=O)CCl)CCS(=O)(=O)C1 (centres undefined) be said to have log2 ratio of Biotin-Ahx-Ub-VS probe labelling at or above -0.1?
1

Can O=C(CCl)Nc1cc2c(cc1Cl)OCCO2 be said to have log2 ratio of Biotin-Ahx-Ub-VS probe labelling at or above -0.1?
0

Can Cl.O=C(CCl)N1CCN(Cc2ccccc2)CC1 be said to have log2 ratio of Biotin-Ahx-Ub-VS probe labelling at or above -0.1?
0

Can Cc1ccccc1OCC(=O)N1CCN(C(=O)CCl)CC1 be said to have log2 ratio of Biotin-Ahx-Ub-VS probe labelling at or above -0.1?
1

Can Cc1ncsc1CCNC(=O)CCl be said to have log2 ratio of Biotin-Ahx-Ub-VS probe labelling at or above -0.1?
1

Can O=C(CCl)NC(Cn1ccccc1=O)c1ccccc1 (centres undefined) be said to have log2 ratio of Biotin-Ahx-Ub-VS probe labelling at or above -0.1?
1

Can Cc1cccnc1NC(=O)C1CCN(C(=O)CCl)CC1.Cl be said to have log2 ratio of Biotin-Ahx-Ub-VS probe labelling at or above -0.1?
0

Can O=C(CCl)Nc1ccc(N2CCCC2=O)cc1 be said to have log2 ratio of Biotin-Ahx-Ub-VS probe labelling at or above -0.1?
0

Can Cl.O=C(CCl)NCc1ccnc(Oc2ccccc2F)c1 be said to have log2 ratio of Biotin-Ahx-Ub-VS probe labelling at or above -0.1?
1

Can O=C(CCl)Nc1ccccc1C(F)(F)F be said to have log2 ratio of Biotin-Ahx-Ub-VS probe labelling at or above -0.1?
1

Can NC(=O)C1CCCCN1C(=O)CCl (centres undefined) be said to have log2 ratio of Biotin-Ahx-Ub-VS probe labelling at or above -0.1?
0

Can CCN(Cc1ccc(C#N)cc1F)C(=O)CCl be said to have log2 ratio of Biotin-Ahx-Ub-VS probe labelling at or above -0.1?
0

Can CCN1C(=O)C2CN(C(=O)CCl)CCN2C1=O (centres undefined) be said to have log2 ratio of Biotin-Ahx-Ub-VS probe labelling at or above -0.1?
1

Can Cl.O=C(CCl)N1CCn2cncc2C1 be said to have log2 ratio of Biotin-Ahx-Ub-VS probe labelling at or above -0.1?
1

Can Cc1cccc2nc(CCNC(=O)CCl)cn12.Cl be said to have log2 ratio of Biotin-Ahx-Ub-VS probe labelling at or above -0.1?
0

Can COc1ccc(-c2csc(NC(=O)CCl)n2)cc1 be said to have log2 ratio of Biotin-Ahx-Ub-VS probe labelling at or above -0.1?
0

Can Cc1ccccc1C1(CNC(=O)CCl)CCOCC1 be said to have log2 ratio of Biotin-Ahx-Ub-VS probe labelling at or above -0.1?
1

Can Cc1cc(Cl)ccc1NC(=O)CCl be said to have log2 ratio of Biotin-Ahx-Ub-VS probe labelling at or above -0.1?
1

Can Cl.Cn1nccc1C(NC(=O)CCl)c1ccccc1 (centres undefined) be said to have log2 ratio of Biotin-Ahx-Ub-VS probe labelling at or above -0.1?
0

Can CC(NC(=O)CCl)c1csc(-c2ccccc2)n1.Cl (centres undefined) be said to have log2 ratio of Biotin-Ahx-Ub-VS probe labelling at or above -0.1?
0

Can Cc1ccc2nnc(CNC(=O)CCl)n2c1 be said to have log2 ratio of Biotin-Ahx-Ub-VS probe labelling at or above -0.1?
1

Can COc1cccc(CN(C)C(=O)CCl)c1 be said to have log2 ratio of Biotin-Ahx-Ub-VS probe labelling at or above -0.1?
0

Can O=C(CCl)NC1CCC(C(F)(F)F)CC1 (centres undefined) be said to have log2 ratio of Biotin-Ahx-Ub-VS probe labelling at or above -0.1?
0

---

# TARGET_OR_SYSTEM: USP39 (UniProt Q53GS9)
# Sequence (Q53GS9 whole entry, the tested form may be a part): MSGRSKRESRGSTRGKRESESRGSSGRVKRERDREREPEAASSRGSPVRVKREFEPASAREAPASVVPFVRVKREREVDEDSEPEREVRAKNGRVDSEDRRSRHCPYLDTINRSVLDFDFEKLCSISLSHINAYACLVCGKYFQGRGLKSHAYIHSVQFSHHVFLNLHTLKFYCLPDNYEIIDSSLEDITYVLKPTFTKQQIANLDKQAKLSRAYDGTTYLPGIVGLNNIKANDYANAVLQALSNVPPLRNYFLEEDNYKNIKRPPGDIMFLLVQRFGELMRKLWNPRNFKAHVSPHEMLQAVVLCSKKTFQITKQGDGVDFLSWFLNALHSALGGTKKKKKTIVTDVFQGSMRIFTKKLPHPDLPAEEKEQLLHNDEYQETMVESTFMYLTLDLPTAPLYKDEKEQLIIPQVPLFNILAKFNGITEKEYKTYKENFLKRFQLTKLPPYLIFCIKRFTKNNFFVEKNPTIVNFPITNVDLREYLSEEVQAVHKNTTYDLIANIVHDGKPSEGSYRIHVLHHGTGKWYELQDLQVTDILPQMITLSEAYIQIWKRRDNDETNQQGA
# PROCEDURE_TEXT: log2 ratio of Biotin-Ahx-Ub-VS probe labelling (fragment/DMSO); higher = less target engagement (more negative = stronger competition), active = hit call of the paper (q ≤ 0.05, log2 ratio ≤ -1)
# TEST_CONDITIONS: compound concentration: 200 uM; treatment time: 3 h
# label = True if log2 ratio of Biotin-Ahx-Ub-VS probe labelling >= 0.06 else False

Can CN(CCc1ncc(Br)cn1)C(=O)CCl.Cl be said to have log2 ratio of Biotin-Ahx-Ub-VS probe labelling at or above 0.06?
True

Can O=C(CCl)N1CCC(c2nc3ccccc3o2)CC1 be said to have log2 ratio of Biotin-Ahx-Ub-VS probe labelling at or above 0.06?
False

Can Cc1ccc(CC(CO)CNC(=O)CCl)cc1 (centres undefined) be said to have log2 ratio of Biotin-Ahx-Ub-VS probe labelling at or above 0.06?
False

Can Cl.O=C(CCl)N1CCCC(c2ncc[nH]2)C1 (centres undefined) be said to have log2 ratio of Biotin-Ahx-Ub-VS probe labelling at or above 0.06?
False

Can N#Cc1ccccc1N1CCN(C(=O)CCl)CC1 be said to have log2 ratio of Biotin-Ahx-Ub-VS probe labelling at or above 0.06?
True

Can O=C(CCl)N1CCCC1c1ccsc1 (centres undefined) be said to have log2 ratio of Biotin-Ahx-Ub-VS probe labelling at or above 0.06?
False

Can Cc1ccc(N2CCC(NC(=O)CCl)C2=O)cc1 (centres undefined) be said to have log2 ratio of Biotin-Ahx-Ub-VS probe labelling at or above 0.06?
True

Can Cc1cc(Cl)ccc1NC(=O)CCl be said to have log2 ratio of Biotin-Ahx-Ub-VS probe labelling at or above 0.06?
True

Can O=C(CCl)NCc1ccc2c(c1)OCO2 be said to have log2 ratio of Biotin-Ahx-Ub-VS probe labelling at or above 0.06?
False

Can Cc1ccccc1C1(CNC(=O)CCl)CCOCC1 be said to have log2 ratio of Biotin-Ahx-Ub-VS probe labelling at or above 0.06?
False

Can O=C(CCl)N1c2ccccc2NC(=O)C12CCCC2 be said to have log2 ratio of Biotin-Ahx-Ub-VS probe labelling at or above 0.06?
True

Can O=C(CCl)NCC(=O)N1CCCC1 be said to have log2 ratio of Biotin-Ahx-Ub-VS probe labelling at or above 0.06?
True

Can O=C(CCl)N1CCOC2(CCC2)C1 be said to have log2 ratio of Biotin-Ahx-Ub-VS probe labelling at or above 0.06?
True

Can Cl.O=C(CN1CCN(C(=O)CCl)CC1)Nc1ccc(F)cc1 be said to have log2 ratio of Biotin-Ahx-Ub-VS probe labelling at or above 0.06?
True
